Data provenance: ChEMBL document CHEMBL3612027

- Tested on: HL-60(TB)
- TEST NAME: Cytotoxicity against human HL-60(TB) cells assessed as cell growth at 10 uM after 48 hrs relative to control
- Assay type: functional
- STATED CONDITIONS: HL-60, 48 h, read-out: Activity
Tick criterion met if growth at 10 µM is 30% or greater. Tick criterion not met if growth at 10 µM is less than 30%.

Use these answered entries as a reference point.
1. COC(=O)[C@@H](NC(=O)N[C@H](C(=O)N[C@H]1CCCCNC(=O)/C=C/[C@H](C(C)C)NC1=O)C(C)C)C(C)C = criterion not met
2. COC(=O)[C@@H](NC(=O)N[C@@H](Cc1ccccc1)C(=O)N[C@H]1CCCCNC(=O)/C=C/[C@H](Cc2c[nH]c3ccccc23)NC1=O)C(C)C = criterion met
3. COC(=O)[C@@H](NC(=O)N[C@@H](Cc1ccccc1)C(=O)N[C@H]1CCCCNC(=O)/C=C/[C@H](Cc2ccccc2)NC1=O)C(C)C = criterion not met
4. COC(=O)[C@@H](NC(=O)N[C@H](C(=O)N[C@H]1CCCCNC(=O)/C=C/[C@H](Cc2c[nH]c3ccccc23)NC1=O)C(C)C)C(C)C = criterion not met

As a next step, examine the molecule that follows.
QUERY: Item "COC(=O)[C@@H](NC(=O)N[C@@H](Cc1ccccc1)C(=O)N[C@H]1CCCCNC(=O)/C=C/[C@H](C(C)C)NC1=O)C(C)C" with growth at 10 µM of 30% or above?
RESULT: criterion met

###

Assignment: determine reported growth at 10 µM for the given compounds.
- Tested on: T47D
- TEST NAME: Cytotoxicity against human T47D cells assessed as cell growth at 10 uM after 48 hrs relative to control
- Format: functional
- STATED CONDITIONS: read-out: Activity
Give bare numbers, in %.

1) COC(=O)[C@@H](NC(=O)N[C@@H](Cc1ccccc1)C(=O)N[C@H]1CCCCNC(=O)/C=C/[C@H](C(C)C)NC1=O)C(C)C = -3.59

Batch lookup, growth at 10 µM per entry.
1. COC(=O)[C@@H](NC(=O)N[C@@H](Cc1ccccc1)C(=O)N[C@H]1CCCCNC(=O)/C=C/[C@H](Cc2c[nH]c3ccccc23)NC1=O)C(C)C
2. COC(=O)[C@@H](NC(=O)N[C@@H](Cc1ccccc1)C(=O)N[C@H]1CCCCNC(=O)/C=C/[C@H](Cc2ccccc2)NC1=O)C(C)C
3. COC(=O)[C@@H](NC(=O)N[C@H](C(=O)N[C@H]1CCCCNC(=O)/C=C/[C@H](Cc2c[nH]c3ccccc23)NC1=O)C(C)C)C(C)C
4. COC(=O)[C@@H](NC(=O)N[C@H](C(=O)N[C@H]1CCCCNC(=O)/C=C/[C@H](C(C)C)NC1=O)C(C)C)C(C)C

RESULT:
1: 34.4; 2: 8.25; 3: -9.26; 4: -31.7

###

- Tested on: CAKI-1
- TEST NAME: Cytotoxicity against human Caki1 cells assessed as cell growth at 10 uM after 48 hrs relative to control
- Format: functional
- STATED CONDITIONS: CAKI-1, 48 h, read-out: Activity
Assignment: determine reported growth at 10 µM for the given compounds.
One number for each entry, in %.

Batch lookup, growth at 10 µM per entry.
1. COC(=O)[C@@H](NC(=O)N[C@@H](Cc1ccccc1)C(=O)N[C@H]1CCCCNC(=O)/C=C/[C@H](Cc2ccccc2)NC1=O)C(C)C
2. COC(=O)[C@@H](NC(=O)N[C@H](C(=O)N[C@H]1CCCCNC(=O)/C=C/[C@H](Cc2c[nH]c3ccccc23)NC1=O)C(C)C)C(C)C
3. COC(=O)[C@@H](NC(=O)N[C@@H](Cc1ccccc1)C(=O)N[C@H]1CCCCNC(=O)/C=C/[C@H](Cc2c[nH]c3ccccc23)NC1=O)C(C)C
4. COC(=O)[C@@H](NC(=O)N[C@H](C(=O)N[C@H]1CCCCNC(=O)/C=C/[C@H](C(C)C)NC1=O)C(C)C)C(C)C
5. COC(=O)[C@@H](NC(=O)N[C@@H](Cc1ccccc1)C(=O)N[C@H]1CCCCNC(=O)/C=C/[C@H](C(C)C)NC1=O)C(C)C

RESULT:
1. 106
2. 98.8
3. 106
4. 103
5. 98.3
